Below, each of the substances is paired with its reported EC50 value.
# measured on: hNPY2R (Homo sapiens, UniProt P49146)
# Construct: expressed in transfected cells; host or cells: HEK-293 cells carrying a CRE-luciferase reporter gene
# Sequence (P49146 whole entry): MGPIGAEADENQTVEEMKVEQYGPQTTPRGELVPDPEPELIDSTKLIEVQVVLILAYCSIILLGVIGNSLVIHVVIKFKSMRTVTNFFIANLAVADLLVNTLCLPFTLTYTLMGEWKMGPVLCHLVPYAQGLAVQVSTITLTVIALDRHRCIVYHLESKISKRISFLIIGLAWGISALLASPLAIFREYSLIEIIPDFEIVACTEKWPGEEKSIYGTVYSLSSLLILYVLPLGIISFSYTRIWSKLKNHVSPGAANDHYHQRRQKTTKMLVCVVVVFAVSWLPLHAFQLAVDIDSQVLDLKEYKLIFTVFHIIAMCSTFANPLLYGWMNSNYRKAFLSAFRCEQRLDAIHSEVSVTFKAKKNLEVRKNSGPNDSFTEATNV
# assay details: hNPY2R CreLuc reporter gene assay in 0.5% and 100% plasma
# Type: cell-based
# condition: CreLuc reporter gene assay, 0.5% human plasma; read-out: hNPY2R 0.5% hP
Starred links: 1 amine or outer side, 2 acyl side, 3 side chain; linkers in the order of their positions; H or OH if unused. Non-standard residues stand in square brackets, D forms with d. Groups on a side chain read outwards from the residue. *: point of attachment. C20 diacid = O=C(O)CCCCCCCCCCCCCCCCCCC(=O)*; C18 diacid = O=C(O)CCCCCCCCCCCCCCCCC(=O)*; γGlu = O=C(O)[C@H](CCC(=O)[*:2])N[*:1]; εLys = N[C@@H](CCCCN[*:1])C(=O)[*:2]; NMeR = CN[C@@H](CCCNC(=N)N)C(=O)O; Tle = CC(C)(C)[C@H](N)C(=O)O; AEEA = NCCOCCOCC(=O)O; Aib = CC(C)(N)C(=O)O
Could you give me the number in nM? Just the number is fine.

substance: H-Y[Aib]EGTFTSDYSI[Aib]LEKQAQ[Aib]AFVEWLIK([εLys-γGlu-γGlu-γGlu-γGlu-γGlu-γGlu-C20 diacid])GGPSEGASLRHYYNWLTRQ[NMeR]Y-NH2 [Compound 236]
EC50 (nM): 31
//
substance: H-Y[Aib]EGTFTSDYSI[Aib]LEKQAQ[Aib]AFVEWLIK([εLys-γGlu-γGlu-γGlu-γGlu-γGlu-γGlu-C20 diacid])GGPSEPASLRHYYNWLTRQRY-NH2 [Compound 233]
EC50 (nM): 12.6
//
substance: H-Y[Aib]EGTFTSDYSI[Aib]LEKQAQ[Aib]AFVQWLIK([AEEA-AEEA-γGlu-γGlu-γGlu-γGlu-C18 diacid])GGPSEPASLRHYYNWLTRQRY-NH2 [Compound 173]
EC50 (nM): 12.4

Req: # input substance: H-Y[Aib]EGTFTSDYSI[Aib]LEKQAQ[Aib]AFVQWLIK([AEEA-AEEA-γGlu-γGlu-γGlu-γGlu-γGlu-C18 diacid])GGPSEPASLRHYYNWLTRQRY-NH2 [Compound 142] ; wanted: its EC50
Resp: 13

Req: Also, H-Y[Aib]EGTFTSDYSI[Aib]LEKEAQ[Aib]KFVEWLIK([εLys-γGlu-γGlu-γGlu-γGlu-γGlu-γGlu-C20 diacid])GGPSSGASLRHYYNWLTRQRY-NH2 [Compound 46] please.
Resp: 10.2

Req: Also, H-Y[Aib]EGTFTSDYSI[Aib]LEKQAQ[Aib]AFVEWLIK([AEEA-AEEA-γGlu-γGlu-γGlu-γGlu-C18 diacid])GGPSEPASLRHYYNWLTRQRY-NH2 [Compound 256] please.
Resp: 10.9

Req: Also, H-Y[Aib]EGTFTSDYSI[Aib]LEKQAQ[Aib]AFVEWLIK([εLys-γGlu-γGlu-γGlu-γGlu-γGlu-γGlu-C20 diacid])GGPSSGASLR[Tle]YYNWLTRQRY-NH2 [Compound 119] please.
Resp: 23.1

Req: Also, H-Y[Aib]EGTFTSDYSI[Aib]LEKQAQ[Aib]AFVQWLIK([AEEA-AEEA-Glu-Glu-Glu-Glu-C20 diacid])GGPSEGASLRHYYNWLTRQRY-NH2 [Compound 239] please.
Resp: 13.6

Req: Also, H-Y[Aib]EGTFTSDYSI[Aib]LEKQAE[Aib]AFVQWLIK([AEEA-AEEA-γGlu-γGlu-γGlu-γGlu-C18 diacid])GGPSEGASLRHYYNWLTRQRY-NH2 [Compound 156] please.
Resp: 13.5

Req: Also, H-Y[Aib]EGTFTSDYSI[Aib]LEAAKQ[Aib]AFVEWLIK([εLys-γGlu-γGlu-γGlu-γGlu-γGlu-γGlu-C20 diacid])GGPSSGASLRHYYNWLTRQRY-NH2 [Compound 25] please.
Resp: 13
